# Study System: T1, full-length Annexin A1 protein (346 amino acids; Accession No. NP-000691.1) (human, UniProt P04083 1-346)
# T1 construct: Biotinylated for biopanning; coated at 4 ug per well for ELISA
# T1 sequence: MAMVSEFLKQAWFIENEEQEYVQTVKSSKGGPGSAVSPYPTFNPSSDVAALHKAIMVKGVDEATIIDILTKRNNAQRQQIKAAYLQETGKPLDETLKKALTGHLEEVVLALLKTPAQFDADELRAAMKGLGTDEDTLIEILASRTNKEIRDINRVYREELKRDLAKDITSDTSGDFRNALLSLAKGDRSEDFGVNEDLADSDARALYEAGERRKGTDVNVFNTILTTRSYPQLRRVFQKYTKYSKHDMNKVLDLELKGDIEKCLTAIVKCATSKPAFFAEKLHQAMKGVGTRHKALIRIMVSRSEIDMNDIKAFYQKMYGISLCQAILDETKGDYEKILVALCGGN
# Test Description: scFv selected by ELISA on plate-coated full-length Annexin A1, anti-HA-HRP detection

>  <Binder>
scFv F4 (scFv) scFv: EVQLLESGGGLVQPGGSLRLSCAASGFTFSGYYMSWVRQAPGKGLEWVSSISPSGSSIYYADSVKGRFTISRDNSKNTLYLQMNSLRAEDTAVYYCAKGSPGFDYWGQGTLVTVSSGGGGSGGGGSGGGGSQSVLTQPPSASGAPGQRVTISCSGSSFNIGSNDVSWYQQLPGTAPKLLIYSDSHRPSGVPDRFSGSKSGTSASLAISGLQSEDEADYYCGSWDYSLSAYVFGGGTKLTVLG

>  <binding result>
binds

$$$$
>  <Binder>
scFv F5 (scFv, also called clone B5) scFv: EVQLLESGGGLVQPGGSLRLSCAASGFTFSDYAMSWVRQAPGKGLEWVSGISYGGGNTYYADSVKGRFTISRDNSKNTLYLQMNSLRAEDTAVYYCAKRLGSFDYWGQGTLVTVSSGGGGSGGGGSGGGGSQSVLTQPPSASGTPGRRVTISCTGTSSNIGSNYVSWYRQLPGTAPKLLIYAGNHRPSGVPDRFSGSKSGTSASLAISGLRSEDEADYYCGSWDSSLSAYVFGGGTKLTVLG

>  <binding result>
binds

$$$$
>  <Binder>
scFv F8 (scFv, also called clone G3) scFv: EVQLLESGGGLVQPGGSLRLSCAASGFTFSSYSMSWVRQAPGKGLEWVSGISPGSGSIYYADSVKGRFTISRDNSKNTLYLQMNSLRAEDTAVYYCARRIHPFDYWGQGTLVAVSSGGGGSGGGGSGGGGSQSVLTQPPSASGTPGQRVTISCTGSSSNIGNNDVSWYQQLPGTAPKLLIYSDNQRPSGVPGRFSGSKSGTSASLAISGLRSEDEADYYCGAWDSSLNAYVFGGGTKLTVLG

>  <binding result>
binds

$$$$
